Hey, just so you know, these numbers are from BindingDB's records for doi:10.1021/acs.jmedchem.7b00861.

target: Cannabinoid receptor 1 (Homo sapiens); assay: Displacement of [3H]CP55940 from recombinant human CB1 receptor expressed in beta-galactosidase expressing CHOK1 cell membranes after 60 mins by scintillation spectrometry
Sequence (P21554 whole entry): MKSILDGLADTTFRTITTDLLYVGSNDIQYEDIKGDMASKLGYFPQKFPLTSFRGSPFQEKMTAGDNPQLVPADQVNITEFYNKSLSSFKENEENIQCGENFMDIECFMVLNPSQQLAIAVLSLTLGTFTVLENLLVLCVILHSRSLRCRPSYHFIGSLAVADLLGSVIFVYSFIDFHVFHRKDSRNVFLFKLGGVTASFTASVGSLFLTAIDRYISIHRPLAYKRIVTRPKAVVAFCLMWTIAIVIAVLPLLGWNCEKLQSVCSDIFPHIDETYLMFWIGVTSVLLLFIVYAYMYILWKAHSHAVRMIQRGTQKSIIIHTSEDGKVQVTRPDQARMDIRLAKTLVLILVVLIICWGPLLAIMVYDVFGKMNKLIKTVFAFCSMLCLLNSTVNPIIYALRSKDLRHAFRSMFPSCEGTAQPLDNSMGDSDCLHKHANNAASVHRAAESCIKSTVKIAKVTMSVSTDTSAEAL
pKi: −log10 of the molar value.
compounds and their reported pKi

structure_smiles_string	tgt	pKi
Cc1c(C(=O)NN2CCCCC2)nc(-c2ccc(Cl)cc2Cl)n1-c1ccc(OCCCC(F)(F)F)cc1	Cannabinoid receptor 1 (Homo sapiens)	9.70
Cc1c(C(=O)Nc2ccc(F)nc2)nc(-c2ccc(Cl)cc2Cl)n1-c1ccc(OS(=O)(=O)CCC(F)(F)F)cc1	Cannabinoid receptor 1 (Homo sapiens)	10.00
Cc1c(C(=O)N[C@@H]2CCCC[C@@H]2N(C)C)nc(-c2ccc(Cl)cc2Cl)n1-c1ccc(OS(=O)(=O)CCC(F)(F)F)cc1	Cannabinoid receptor 1 (Homo sapiens)	8.60
Cc1c(C(=O)N[C@H]2CCCC[C@H]2N)nc(-c2ccc(Cl)cc2Cl)n1-c1ccc(OS(=O)(=O)CCC(F)(F)F)cc1	Cannabinoid receptor 1 (Homo sapiens)	9.50
Cc1c(C(=O)N[C@@H]2CCCC[C@H]2O)nc(-c2ccc(Cl)cc2Cl)n1-c1ccc(OS(=O)(=O)CCC(F)(F)F)cc1	Cannabinoid receptor 1 (Homo sapiens)	9.70
Cc1c(C(=O)NN2CCCCC2)nc(-c2ccc(Cl)cc2Cl)n1-c1ccc(OS(=O)(=O)CCC(C)(C)C)cc1	Cannabinoid receptor 1 (Homo sapiens)	9.30
Cc1c(C(=O)Nc2ccc(C(F)(F)F)cn2)nc(-c2ccc(Cl)cc2Cl)n1-c1ccc(OS(=O)(=O)CCC(F)(F)F)cc1	Cannabinoid receptor 1 (Homo sapiens)	9.90
Cc1c(C(=O)NN2CCCCC2)nc(-c2ccc(Cl)cc2Cl)n1-c1ccc(OCCC(F)(F)F)cc1	Cannabinoid receptor 1 (Homo sapiens)	9.10
CCCCS(=O)(=O)Oc1ccc(-n2c(-c3ccc(Cl)cc3Cl)nc(C(=O)NN3CCCCC3)c2C)cc1	Cannabinoid receptor 1 (Homo sapiens)	9.90
Cc1c(C(=O)NN2CCCCC2)nc(-c2ccc(Cl)cc2Cl)n1-c1ccc(OS(=O)(=O)CCC(F)(F)F)cc1	Cannabinoid receptor 1 (Homo sapiens)	9.90
Cc1c(C(=O)NN2CCCCC2)nc(-c2ccc(Cl)cc2Cl)n1-c1ccc(OS(=O)(=O)CCCC(F)(F)F)cc1	Cannabinoid receptor 1 (Homo sapiens)	10.00
